ASSAY_EXPLANATION: Food effect on administration of sepiapterin: plasma sepiapterin and BH4 concentrations, fasted vs fed
Format: in vivo, human
CONDITION_CONTEXT: human, plasma, oral, 10 mg/kg, fasted; sepiapterin 10 mg/kg oral; 0.5 h; read-out: Concentration in Plasma, Median
ATTRIBUTE_MEASURED: concentration at 0.5 h (nM)
Expressed in nM, but write only the number.

COMPOUND: C[C@H](O)[C@H](O)[C@H]1CNc2nc(N)[nH]c(=O)c2N1 [BH4, Tetrahydrobiopterin]
ENDPOINT_UNIT: nM
concentration at 0.5 h: 22.9

Let us move to another entry and its concentration at 0.5 h.
For this compound ( C[C@H](O)C(=O)C1=Nc2c(nc(N)[nH]c2=O)NC1 [sepiapterin, Sepiapterin] ), measured concentration at 0.5 h is 2.32
